Target: T1, human ROR1 (Receptor Tyrosine Kinase-Like Orphan Receptor 1) on the cell surface (human, UniProt Q01973 30-937)
T1 construct: whole, on cells; engineered into B16-F10 (high density) and LS174T (low density) cells; also called B16-F10-ROR1-H; LS174T-ROR1-L
T1 sequence (Q01973 30-937): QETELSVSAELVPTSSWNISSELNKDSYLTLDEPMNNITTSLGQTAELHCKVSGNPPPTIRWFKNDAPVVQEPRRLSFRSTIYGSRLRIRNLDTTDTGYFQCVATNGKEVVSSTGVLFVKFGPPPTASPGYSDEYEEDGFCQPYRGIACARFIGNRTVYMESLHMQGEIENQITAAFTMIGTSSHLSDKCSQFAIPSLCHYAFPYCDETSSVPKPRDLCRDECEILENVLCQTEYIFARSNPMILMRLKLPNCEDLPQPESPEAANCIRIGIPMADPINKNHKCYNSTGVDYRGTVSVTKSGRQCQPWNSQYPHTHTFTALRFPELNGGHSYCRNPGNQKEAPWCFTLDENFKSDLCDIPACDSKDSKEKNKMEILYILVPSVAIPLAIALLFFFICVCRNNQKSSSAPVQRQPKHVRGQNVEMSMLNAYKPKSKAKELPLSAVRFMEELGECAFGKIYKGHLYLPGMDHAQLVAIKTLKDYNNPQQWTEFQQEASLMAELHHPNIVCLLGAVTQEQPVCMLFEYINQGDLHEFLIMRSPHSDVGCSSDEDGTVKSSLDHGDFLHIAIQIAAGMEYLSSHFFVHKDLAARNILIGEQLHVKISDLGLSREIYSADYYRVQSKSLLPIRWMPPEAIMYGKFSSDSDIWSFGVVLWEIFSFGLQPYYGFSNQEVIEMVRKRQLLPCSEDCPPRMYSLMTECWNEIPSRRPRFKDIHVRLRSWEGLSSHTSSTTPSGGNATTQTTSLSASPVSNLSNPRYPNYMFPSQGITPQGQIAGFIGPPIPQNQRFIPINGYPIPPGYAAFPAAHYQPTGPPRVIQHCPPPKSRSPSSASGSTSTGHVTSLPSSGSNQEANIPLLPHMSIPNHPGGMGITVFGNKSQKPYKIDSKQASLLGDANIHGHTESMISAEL
Experiment: flow cytometry, LS174T cells expressing human ROR1 (low density)
Protocol: As shown in the tables below, mouse B16-F10 melanoma (Tables 9A-9F) or LS174T human colorectal adenocarcinoma (Tables 9G-9H) cells genetically engineered to express human ROR1 at high and low densities, respectively, were stained for flow cytometric analysis with 100 nM of humanized variants of the ROR1 specific VHHs, 5A1 or 2A11 in either a VHH-Fc format or the Ac13 format shown in FIG. 1. […]

{"binder": "F22158104 (h5A1-BI-004 Fc) (Fc fusion, VHH-Fc format; not shown: Fc of the VHH-Fc format) EVQLLESGGGLVQPGGSLRLSCAASGYTNRIKCMGWFRQAPGKEREEVASISTGTGNAYYADSVKGRFTISQDKSKNTLYLQMNSLKAEDTAVYYCAADVRPDGTTCHYNKRGQGTLVTVSS", "MFI": 28900}
{"binder": "F22158108 (h5A1-BI-008 Fc) (Fc fusion, VHH-Fc format; not shown: Fc of the VHH-Fc format) EVQLLESGGGLVQPGGSLRLSCAASGYTNRIKCMGWFRQAPGKEREEVASISTGTGNAYYADSVKGRFTISQDKSKNTLYLQMNSLKAEDTAVYYCAADVRPDGRTCHYNSRGQGTLVTVSS", "MFI": 25100}

FYI, the data here is from patent US20250313627A1.
